tested.on: Mitogen-activated protein kinase 10 (Homo sapiens, UniProt P53779)
Sequence (P53779 whole entry, the tested form may be a part): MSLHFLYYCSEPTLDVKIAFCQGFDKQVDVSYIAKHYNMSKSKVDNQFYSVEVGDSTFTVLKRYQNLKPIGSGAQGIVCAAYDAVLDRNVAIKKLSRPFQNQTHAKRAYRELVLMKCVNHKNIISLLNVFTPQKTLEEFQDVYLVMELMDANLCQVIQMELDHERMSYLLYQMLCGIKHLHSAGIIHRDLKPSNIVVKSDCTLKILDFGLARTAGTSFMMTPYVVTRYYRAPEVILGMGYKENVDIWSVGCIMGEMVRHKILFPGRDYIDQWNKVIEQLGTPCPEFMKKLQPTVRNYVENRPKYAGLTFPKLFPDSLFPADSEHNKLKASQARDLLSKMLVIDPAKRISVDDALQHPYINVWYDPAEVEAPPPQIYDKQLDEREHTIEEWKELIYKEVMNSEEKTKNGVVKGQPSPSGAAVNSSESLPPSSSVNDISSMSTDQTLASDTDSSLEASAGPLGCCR
test.summary: Inhibition of JNK3 in human PBMCs assessed as decrease in LPS-induced TNFalpha mRNA level after 4 hrs by real-time reverse transcription-PCR analysis
measured.attribute: pIC50
Numbers only, as −log10 of the molar value.

Request: Please report the recorded pIC50 for `Oc1c2ccccc2c2c3c(cccc13)N=N2` .
Response: 5.00

---

tested.on: Mitogen-activated protein kinase 10 (Homo sapiens)
test.summary: Binding affinity to N-terminal His6X-tagged human recombinant JNK3 catalytic domain expressed in Escherichia coli BL21 (DE3) by surface plasmon resonance analysis
measured.attribute: Kd (µM)
Numbers only, in µM.

Request: Would you mind telling me what Kd value was observed for `COc1ccc2c(c1)nc(-c1ccc(C)c(Cl)c1)n2-c1ccnc(NC2CCCCC2)c1` ?
Response: 18.1
